Test system: A498 renal
Assay: NCI-60 one-dose screen, 48 h
Conditions: 10 µM unless noted
This is part of a sample that, as a whole, favours compounds with a hit. Of some 83,000 tested, about 20% had one in any assay. Calls of active or inactive are those of the source. Rule for the calls: active = growth percent below 10; inactive = the rest.
Outcomes you can answer with include only these: T for active, F for inactive

Example cases with answers are listed next.
Q: Just curious, what result did CN=S(=O)(OCCCCCOS(=O)(=NC)c1ccc(C)cc1)c1ccc(C)cc1 (stereo not drawn) get here?
Result: F

Q: What did the test return for CC1(C)OC2C(CO)OC(n3ccc(=O)[nH]c3=O)C2O1 (stereo not drawn) ?
Result: F

Q: Please indicate how the test categorized Cc1ccc(S(=O)(=O)Oc2ccc3sc4c(CO)ccc(NCCN(C)C)c4c(=O)c3c2)cc1 .
Result: T

New cases:
Q: Call for entry CCCCCCCCNC(=O)C(C)C :
Result: F

Q: Look up the recorded call for N#Cc1ccc(OC(=O)Nc2c(Cl)cc(Cl)cc2Cl)cc1 in this test.
Result: F

Q: Assay result, entry NC(CO)(CO)c1ccccc1 — outcome?
Result: F

Q: Please indicate how the test categorized c1ccc(Oc2c3ccccc3nc3ccccc23)cc1 .
Result: F

Q: What is the recorded call for this compound in the test? CSc1nsc(N)n1
Result: F

Q: Any idea what this test logged for CCOC(=O)CSCCC#N ?
Result: F

Q: Outcome logged for C#CC(O)c1ccccc1 (stereo not drawn) in this assay:
Result: F

Q: Assay result, entry Clc1ncnc2nc[nH]c12 — outcome?
Result: F

Q: What did the test return for Cc1cc(C(=O)NN)c(C#N)c(=O)[nH]1 ?
Result: F

Q: Status in this test for CCC12OC(COc3ccccc3)CN1CCN2c1ccccc1 (stereo not drawn) ?
Result: F
